- run.description: Effect of concentration on the stability of the solution (purity over time)
- experimental.setup: 8 wt %; in water at 25° C.
assay.readout: Purity at Day 3 (%)
Could you give me the number in %? Just the number is fine.

Solved cases (5 shown):
CCN(CC)CCOC(=O)C(C)c1ccc2oc(-c3ccc(Cl)cc3)nc2c1.Cl (stereo not shown) = 98.5
CCN(CC)CCOC(=O)Cc1ccc(C(=O)c2ccc(C)cc2)n1C.Cl = 97.7
CCN(CC)CCOC(=O)Cc1sc(-c2ccccc2)nc1-c1ccc(Cl)cc1.Cl = 98.7
CCN(CC)CCOC(=O)CC1=C(C)C(=Cc2ccc([S+](C)[O-])cc2)c2ccc(F)cc21.Cl (stereo not shown) = 97.4
CCN(CC)CCOC(=O)CCc1nc(-c2ccccc2)c(-c2ccccc2)o1.Cl = 98.7

Problem: Look up and report measured Purity at Day 3 for this entry: "CCN(CC)CCOC(=O)Cc1c(C)n(C(=O)c2ccc(Cl)cc2)c2ccc(OC)cc12.Cl"
Solution: 98.4

Problem: Look up and report measured Purity at Day 3 for this entry: "CCN(CC)CCOC(=O)CCc1ccc2cc(OC)ccc2c1.Cl"
Solution: 98.4

###

Recorded Purity(%) at Day 28 by entry
- run.description: Effect of concentration on the stability of the solution (purity over time)
- experimental.setup: 5 wt % in 50% ethanol, 25° C.
Put your answer as a value accompanied by its unit after it.

CC(C)OC(=O)c1ccccc1 [Isopropyl benzoate, reference compound] = 98.4%

Problem: Look up and report measured Purity(%) at Day 28 for this entry: CC(C)OC(=O)C(N)Cc1ccccc1 (stereo not shown) [Isopropyl 2-amino-3-phenylpropanoate, reference compound]
Solution: 97.1%

Problem: Look up and report measured Purity(%) at Day 28 for this entry: CCOC(=O)c1ccccc1 [Ethyl benzoate, reference compound]
Solution: 97.6%

Problem: Look up and report measured Purity(%) at Day 28 for this entry: CC(C)(C)OC(=O)C(N)Cc1ccccc1 (stereo not shown) [t-Butyl 2-amino-3-phenylpropanoate, reference compound]
Solution: 56.9%

###

- run.description: Effect of temperature (and pH) on the stability of the solution (purity)
- Type: physicochemical
- experimental.setup: 7% solution in water, pH 7.0, day 21, 5° C.
assay.readout: Purity(%) at day 21 (5° C.)
Could you give me the number in %? Just the number is fine.

Solved cases (4 shown):
CCN(CC)CCOC(=O)CCc1ccc2cc(OC)ccc2c1.Cl = 90.2
CCN(CC)CCOC(=O)CCc1nc(-c2ccccc2)c(-c2ccccc2)o1.Cl = 89.2
CCN(CC)CCOC(=O)Cc1c(C)n(C(=O)c2ccc(Cl)cc2)c2ccc(OC)cc12.Cl = 90.2
CCN(CC)CCOC(=O)Cc1ccc(C(=O)c2ccc(C)cc2)n1C.Cl = 90.0

Pending molecule:
Problem: Look up and report measured Purity(%) at day 21 (5° C.) for this entry: "CCN(CC)CCOC(=O)COc1nn(Cc2ccccc2)c2ccccc12.Cl"
Solution: 89.3

###

Recorded Purity at Day 14 by entry
- run.description: Effect of concentration on the stability of the solution (purity over time)
- experimental.setup: 1 wt %; in water at 25° C.
Could you give me the number in %? Just the number is fine.

Solved cases (2 shown):
CCN(CC)CCOC(=O)Cc1c(C)n(C(=O)c2ccc(Cl)cc2)c2ccc(OC)cc12.Cl = 94.0
CCN(CC)CCOC(=O)Cc1ccc(C(=O)c2ccc(C)cc2)n1C.Cl = 92.3

Pending compound:
Problem: Look up and report measured Purity at Day 14 for this entry: "CCN(CC)CCOC(=O)CCc1ccc2cc(OC)ccc2c1.Cl"
Solution: 94.0
